PROCEDURE TEXT: protein stability index of a GFP-peptide fusion (GPS, HEK-293T) (PSI 1-6); higher = more stable;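 further: 24-mer peptide tiles fused after GFP, lentivirally expressed, FACS-sorted into six equal bins by GFP/DsRed ratio, decoded by Illumina sequencing, PSI is the read-weighted mean bin number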
ASSAY SETUP: treatment: DMSO; c terminus: a fixed tail appended
Entries annotated with measured protein stability index

Some entries whose results are on file:
RESIDUES	protein stability index
HLPVTFPGKDYDADRQCQLTFGPD [ADAMTS4]	4.12
QKVATLEKRNRQLRERVKKVKRSL [CCDC3]	4.08
LSEASGGRAENGERSDLEEDNERE [ZC3H15]	5.53
PPVLSFRLVHTTAIEHFQPNADLL [FCHO1]	2.54
LPGACNIPANVSNCNWFCEGSFNG [KRT33B]	2.33
NKTPGAPESSALQPPPQSSEGLVG [WAS]	5.41

// query protein stability index value for entry REEEKTFWKKYRTFWKEDKAFWKE [CCDC70]
2.57

// query protein stability index value for entry LVAGIGFYQHLLLYIQSHYQLELQ [SMG5]
2.99

// query protein stability index value for entry HTSSEYDMLREMFSDSRSNNDDDE [TAF7L]
5.57

// query protein stability index value for entry SDSIAYDKGEKLLRCKLAAFYRLA [ADD1]
2.33

// query protein stability index value for entry ADIMISFVRGDHRDNSPFDGPGGN [MMP1]
2.96

----------
PROCEDURE TEXT: protein stability index of a GFP-peptide fusion (GPS, HEK-293T) (PSI 1-6); higher = more stable
ASSAY SETUP: treatment: MLN4924 1 uM, 8 h; c terminus: a fixed tail appended
Entries annotated with measured protein stability index
Respond with the number and no other words.

Some entries whose results are on file:
RESIDUES	RECORDED MEASUREMENT
QLTKASLKPRGCSKPPWRPPGGKL [SPACA9]	2.92
GRPGIVAWTLINLSFAAKQRELHS [DHCR7]	3.02
QVLIKHSADVNARDKNWQTPLHVA [ANKRD44]	3.01
VCGKSFSRTTCLFLHLRTHTEERP [ZNF8]	1.93
SSRDKLTEMAASSQGNFEGNFESL [FUNDC2]	5.03
EFVTLKAIALANSDSMHIEDVEAV [ESRRG]	3.31

// query protein stability index value for entry ESLRPLVQTPPGGSEVVPVISPMY [IKZF1]
3.72

// query protein stability index value for entry GQLVRNDSLWHRSDSAPRNKISRF [MFF]
4.04

// query protein stability index value for entry WIIKSNYQGLPVRCVKSIIRQVLQ [SRPK2]
2.78

// query protein stability index value for entry NEDPLVLLAWRCTKLSLLAIHGYT [FBXO33]
2.91

// query protein stability index value for entry AGSEQKGQIIKDIDSGSPAEEAGL [PDZK1]
5.26

// query protein stability index value for entry TILLDGRRVRLELWDTSGQGRFCT [RAB40C]
2.14

// query protein stability index value for entry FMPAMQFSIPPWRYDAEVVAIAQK [MYORG]
2.52

// query protein stability index value for entry EAAYLKILESSQTLLSVLKREAGN [SSNA1]
2

// query protein stability index value for entry PFHEMFVSRGGHGQQDLFRVLKAY [TBC1D10A]
2.42

// query protein stability index value for entry QLTKELPLSPAFFGEDGIFRHDRL [PBXIP1]
3.01

// query protein stability index value for entry FLLKFLLVGDSDVGKGEILASLQD [RAB40B]
1.86

// query protein stability index value for entry DGKRVIVVFHCEFSSERGPRMCRY [CDC25A]
2.73

// query protein stability index value for entry RVSAMRDYRGPDCRYLNFTKGEEI [MIA2]
3.26

// query protein stability index value for entry EFDSPHEDIVFETDHILESLYRDI [STX11]
3.58

// query protein stability index value for entry GLDPEPLPLMDLCRRSVRLALGRE [SPSB1]
3.62

// query protein stability index value for entry TCQKFLIQYNRRQLLILLQNCTDE [POP5]
2.36

Data credit: the supplement of paper PMC10567573
